experiment: Effect on hypotonic hypoxia (survival time in nitrogen gas containing 1.5 % oxygen), life-prolonging rate (2); format: in vivo, male mice (dd-strain); settings: Mus musculus, po, 100 mg/kg oral, 1 hour before 1.5 % oxygen in nitrogen; untreated group 8 minutes; read-out: Life-prolonging rate (2): increase percent of survival time
Entries annotated with measured ILS at 100 mg/kg
// note: answer is a bare numeric in %

Here are 4 compounds together with their reported answers.
[
  {
    "Query smiles": "CN(C)NC(=S)Nc1cccnc1",
    "ILS at 100 mg/kg [%]": 63
  },
  {
    "Query smiles": "CN(C)CCCNC(=S)Nc1cccnc1",
    "ILS at 100 mg/kg [%]": 10
  },
  {
    "Query smiles": "CCN(CC)CCNC(=S)Nc1ccccn1",
    "ILS at 100 mg/kg [%]": 16
  },
  {
    "Query smiles": "COCCCNC(=S)Nc1cccnc1",
    "ILS at 100 mg/kg [%]": 25
  }
]

INPUT: // ILS at 100 mg/kg lookup, key: S=C(NCCSCc1ccccc1)Nc1ccccn1
OUTPUT: 65

INPUT: // ILS at 100 mg/kg lookup, key: S=C(NNc1ccccc1)Nc1cccnc1
OUTPUT: 108

INPUT: // ILS at 100 mg/kg lookup, key: OCCNC(=S)Nc1ccncc1
OUTPUT: 158

INPUT: // ILS at 100 mg/kg lookup, key: OCCCNC(=S)Nc1cccnc1
OUTPUT: 100

INPUT: // ILS at 100 mg/kg lookup, key: CCN(CC)CCNC(=S)Nc1cccnc1
OUTPUT: 40

###

test: Acute toxicity; type: in vivo; settings: mouse, in vivo, sc, dd-strain male mice
Where a name gives a salt, the structure may show the parent alone.
Observable: LD50 (mg/kg)
// note: answer is a bare numeric in mg/kg

INPUT: // LD50 lookup, key: OCCNC(=S)Nc1cccnc1 [hydrochloride]
OUTPUT: 1350

###

assay: Effect on tissue-toxic hypoxia (survival time after KCN i.p.), life-prolonging rate (1); assay type: in vivo, male mice (dd-strain); details: Mus musculus, po, 100 mg/kg oral, 1 hour before KCN 10 mg/kg i.p.; untreated group 140 seconds; read-out: Life-prolonging rate (1): increase percent of survival time
Observable: ILS at 100 mg/kg
Answer format: value, then unit.

[
  {
    "Compound": "OCCNC(=S)Nc1ccncc1",
    "ILS at 100 mg/kg": "242%"
  }
]

INPUT: // ILS at 100 mg/kg lookup, key: O=C(O)CCCNC(=S)Nc1cccnc1
OUTPUT: 127%

INPUT: // ILS at 100 mg/kg lookup, key: CN(C)CCCNC(=S)Nc1cccnc1
OUTPUT: 35%

INPUT: // ILS at 100 mg/kg lookup, key: CCN(CC)CCNC(=S)Nc1ccccn1
OUTPUT: 20%

INPUT: // ILS at 100 mg/kg lookup, key: CN(C)NC(=S)Nc1cccnc1
OUTPUT: 81%

INPUT: // ILS at 100 mg/kg lookup, key: CN(C)CCNC(=S)Nc1cccnc1
OUTPUT: 61%

INPUT: // ILS at 100 mg/kg lookup, key: OCCCNC(=S)Nc1cccnc1
OUTPUT: 115%

INPUT: // ILS at 100 mg/kg lookup, key: S=C(NN=Cc1cccnc1)Nc1cccnc1
OUTPUT: 135%

INPUT: // ILS at 100 mg/kg lookup, key: S=C(NCCSCc1ccccc1)Nc1cccnc1
OUTPUT: 64%

INPUT: // ILS at 100 mg/kg lookup, key: O=C(O)CCCNC(=S)Nc1ccccn1
OUTPUT: 72%

INPUT: // ILS at 100 mg/kg lookup, key: COCCCNC(=S)Nc1cccnc1
OUTPUT: 35%

INPUT: // ILS at 100 mg/kg lookup, key: S=C(NCCSSCCNC(=S)Nc1cccnc1)Nc1cccnc1
OUTPUT: 30%

###

assay: Effect on hypotonic hypoxia (survival time in nitrogen gas containing 1.5 % oxygen), life-prolonging rate (2); format: in vivo, male mice (dd-strain); details: Mus musculus, po, 100 mg/kg oral, 1 hour before 1.5 % oxygen in nitrogen; untreated group 8 minutes; read-out: Life-prolonging rate (2): increase percent of survival time
Response field label: string, one of condition met (ILS at 100 mg/kg strictly below 50%) or condition not met.

Here's what some known entries look like.
[
  {
    "Compound": "O=C(O)CCCNC(=S)Nc1ccccn1",
    "Class label": "condition not met"
  },
  {
    "Compound": "CN(C)CCNC(=S)Nc1cccnc1",
    "Class label": "condition met"
  }
]

INPUT: For OCC(CO)(CO)NC(=S)Nc1cccnc1 , is the recorded ILS at 100 mg/kg below the cut-off of 50%?
OUTPUT: condition not met

###

experiment: Acute toxicity; type: in vivo; settings: mouse, in vivo, po, dd-strain male mice
Counter-ions that a name gives are not always drawn.
Observable: LD50

INPUT: // LD50 lookup, key: OCCNC(=S)Nc1cccnc1 [hydrochloride]
OUTPUT: > 2000 mg/kg

###

assay: Acute toxicity; format: in vivo; details: mouse, in vivo, iv, dd-strain male mice
Structures can show the parent of a compound that is named as a salt.
Observable: LD50 (mg/kg)
// note: answer is a bare numeric in mg/kg

INPUT: // LD50 lookup, key: OCCNC(=S)Nc1cccnc1 [hydrochloride]
OUTPUT: 640

###

assay: Effect on tissue-toxic hypoxia (survival time after KCN i.p.), life-prolonging rate (1); type: in vivo, male mice (dd-strain); settings: Mus musculus, po, 100 mg/kg oral, 1 hour before KCN 10 mg/kg i.p.; untreated group 140 seconds; read-out: Life-prolonging rate (1): increase percent of survival time
Met means recorded ILS at 100 mg/kg is 90% or above; Not met means it is below 90%.

Here's what some known entries look like.
[
  {
    "Molecule": "CN(Cc1ccccc1)NC(=S)Nc1ccncc1",
    "Class label": "Met"
  },
  {
    "Molecule": "CC(C)(CO)NC(=S)Nc1cccnc1",
    "Class label": "Not met"
  },
  {
    "Molecule": "CC(O)CNC(=S)Nc1cccnc1 (centres unmarked)",
    "Class label": "Not met"
  },
  {
    "Molecule": "CN(C)CCCNC(=S)Nc1ccncc1",
    "Class label": "Not met"
  },
  {
    "Molecule": "OCC(CO)(CO)NC(=S)Nc1cccnc1",
    "Class label": "Not met"
  },
  {
    "Molecule": "S=C(NNc1ccccc1)Nc1cccnc1",
    "Class label": "Met"
  },
  {
    "Molecule": "S=C(NCCSCc1ccccc1)Nc1ccccn1",
    "Class label": "Not met"
  },
  {
    "Molecule": "CCN(CC)CCCNC(=S)Nc1cccnc1",
    "Class label": "Not met"
  }
]

Now for another entry.
INPUT: // inclusive: ILS at 100 mg/kg at least 90%? input: S=C(Nc1cccnc1)NN1CCN(Cc2ccccc2)CC1
OUTPUT: Met

###

experiment: Effect on hypotonic hypoxia (survival time in nitrogen gas containing 1.5 % oxygen), life-prolonging rate (2); assay type: in vivo, male mice (dd-strain); settings: Mus musculus, po, 100 mg/kg oral, 1 hour before 1.5 % oxygen in nitrogen; untreated group 8 minutes; read-out: Life-prolonging rate (2): increase percent of survival time
Entries annotated with measured ILS at 100 mg/kg

Here are 3 molecules together with their reported answers.
[
  {
    "Molecule": "CC(C)(CO)NC(=S)Nc1cccnc1",
    "Observable": "ILS at 100 mg/kg",
    "Reported measurement": "50%"
  },
  {
    "Molecule": "S=C(NCCSCc1ccccc1)Nc1cccnc1",
    "Observable": "ILS at 100 mg/kg",
    "Reported measurement": "55%"
  },
  {
    "Molecule": "S=C(NN=Cc1ccccn1)Nc1cccnc1",
    "Observable": "ILS at 100 mg/kg",
    "Reported measurement": "81%"
  }
]

INPUT: // ILS at 100 mg/kg lookup, key: S=C(NN=Cc1cccnc1)Nc1cccnc1
OUTPUT: 114%

INPUT: // ILS at 100 mg/kg lookup, key: O=C(O)CCCNC(=S)Nc1cccnc1
OUTPUT: 78%

INPUT: // ILS at 100 mg/kg lookup, key: CN(Cc1ccccc1)NC(=S)Nc1ccncc1
OUTPUT: 58%

INPUT: // ILS at 100 mg/kg lookup, key: CCN(CC)CCCNC(=S)Nc1cccnc1
OUTPUT: 11%

INPUT: // ILS at 100 mg/kg lookup, key: S=C(NCCSSCCNC(=S)Nc1cccnc1)Nc1cccnc1
OUTPUT: 5%

INPUT: // ILS at 100 mg/kg lookup, key: S=C(Nc1cccnc1)NN1CCN(Cc2ccccc2)CC1
OUTPUT: 80%

INPUT: // ILS at 100 mg/kg lookup, key: CN(C)CCCNC(=S)Nc1ccncc1
OUTPUT: 21%

INPUT: // ILS at 100 mg/kg lookup, key: CC(O)CNC(=S)Nc1cccnc1 (centres unmarked)
OUTPUT: 60%
